Biological target: T1, Zα, tag-free (Z-DNA binding domain of human ADAR1, residues 133-209) (human, UniProt P55265 133-209)
T1 construct: Zα domain of human ADAR1, residues 133-209; from pMCSG7-Zα; source: E. coli BL21(DE3), purified (Ni-NTA, TEV cleavage, reverse Ni-NTA, gel filtration); not shown: His6, N-terminal, cleaved
T1 sequence (looked up): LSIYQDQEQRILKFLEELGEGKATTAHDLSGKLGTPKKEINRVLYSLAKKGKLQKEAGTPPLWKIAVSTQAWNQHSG
Experiment: fluorescence polarisation; FITC-labelled D/E-rich peptide against titrated protein; 20 mM HEPES-NaOH pH 7.5, 50 mM NaCl, 1 mM DTT; one-site total binding model
Settings: both partners purified
pKd: −log10 of the molar value. Primed or numbered codes have the meaning given here. Where no end group is shown, it is not given here. FITC′ = fluorescein isothiocyanate label
endpoint name: pKd

binder: {FITC′}-DKACAEDDDEEDEEEEEEEPDPDP [D/E-rich peptide of MBD3, FITC-labelled]
recorded result: 7.54
